molecular target: T1, Claudin 18.2 (CLDN18.2), expressed on CHOS-CLDN 18.2 / HEK293-CLDN 18.2 / HCC827-CLDN 18.2 cells (human, UniProt P56856-2 1-261); assay: FACS, CHOS-CLDN18.2 cells, 0.313 µg/ml
T1 construct: whole, on cells; The species is not repeated for the CHOS-CLDN 18.2 cells; also called claudin-18A2

Binder: QP14581453 (antibody, human IgG1, kappa, V domains shown, Humanized from QP201202) VH: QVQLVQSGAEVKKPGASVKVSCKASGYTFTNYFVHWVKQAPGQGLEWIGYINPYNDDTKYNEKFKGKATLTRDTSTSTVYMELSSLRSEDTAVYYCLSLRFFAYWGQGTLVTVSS VL: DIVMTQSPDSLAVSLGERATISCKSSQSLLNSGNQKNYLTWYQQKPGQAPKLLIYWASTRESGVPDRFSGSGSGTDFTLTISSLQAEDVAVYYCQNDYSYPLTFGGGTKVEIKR
FACS reading: 33300
--
Binder: QP201202 (antibody, human IgG1, V domains shown, Chimeric; also called 44C6) VH: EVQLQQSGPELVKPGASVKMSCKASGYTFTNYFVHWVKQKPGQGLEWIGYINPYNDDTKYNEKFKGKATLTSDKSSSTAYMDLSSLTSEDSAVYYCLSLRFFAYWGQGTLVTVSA VL: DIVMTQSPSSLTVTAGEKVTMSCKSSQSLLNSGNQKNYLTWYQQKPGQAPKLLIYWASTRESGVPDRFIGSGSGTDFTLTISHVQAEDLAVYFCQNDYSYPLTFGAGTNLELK
FACS reading: 38000
--
Binder: QP14581454 (antibody, human IgG1, kappa, V domains shown, Humanized from QP201202) VH: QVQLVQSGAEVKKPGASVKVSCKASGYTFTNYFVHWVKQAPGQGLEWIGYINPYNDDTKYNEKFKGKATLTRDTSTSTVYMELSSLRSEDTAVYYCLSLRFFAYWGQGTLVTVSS VL: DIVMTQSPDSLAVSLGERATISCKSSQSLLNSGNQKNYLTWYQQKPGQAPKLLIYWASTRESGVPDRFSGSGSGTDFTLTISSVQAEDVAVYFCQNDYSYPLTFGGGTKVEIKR
FACS reading: 30800
--
Binder: QP14561454 (antibody, human IgG1, kappa, V domains shown, Humanized from QP201202) VH: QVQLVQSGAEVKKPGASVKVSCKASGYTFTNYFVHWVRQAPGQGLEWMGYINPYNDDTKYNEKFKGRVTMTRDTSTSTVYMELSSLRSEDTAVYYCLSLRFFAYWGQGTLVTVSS VL: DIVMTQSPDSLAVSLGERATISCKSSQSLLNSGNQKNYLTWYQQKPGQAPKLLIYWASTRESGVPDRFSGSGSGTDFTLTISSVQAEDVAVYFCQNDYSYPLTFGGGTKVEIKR
FACS reading: 44800
